Experimental target: recombinant human NAMPT (Homo sapiens)
Sequence (P43490 whole entry): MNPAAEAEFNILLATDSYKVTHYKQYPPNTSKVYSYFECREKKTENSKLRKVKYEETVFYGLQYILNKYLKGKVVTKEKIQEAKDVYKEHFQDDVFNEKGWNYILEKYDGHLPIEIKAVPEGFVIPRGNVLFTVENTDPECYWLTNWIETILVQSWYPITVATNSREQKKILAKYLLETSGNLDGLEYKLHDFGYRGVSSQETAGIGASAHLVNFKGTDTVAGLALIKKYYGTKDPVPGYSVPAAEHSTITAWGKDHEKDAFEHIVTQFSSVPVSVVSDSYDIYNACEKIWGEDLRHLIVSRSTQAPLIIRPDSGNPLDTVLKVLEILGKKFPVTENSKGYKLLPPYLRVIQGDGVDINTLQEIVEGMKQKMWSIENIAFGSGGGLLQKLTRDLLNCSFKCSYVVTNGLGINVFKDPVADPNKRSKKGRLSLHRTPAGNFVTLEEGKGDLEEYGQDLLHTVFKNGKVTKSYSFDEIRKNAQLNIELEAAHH
Test: NAMPT inhibition (fluorometric NMN detection)
Experimental context: NI = No inhibition at concentration < 1 mM, SD < 20%
pIC50: −log10 of the molar value.
Observation type: pIC50

Would you please look over these solved cases?
>>> print(df.to_string())
                                   compound  measured_result
0  O=C(CCCCCNC(=O)c1ccccc1)Nc1ccc([C@@H]2N[C@H](CO)[C@@H](O)[C@H]2O)cc1 [Compound 23]             3.44
1  O=C(NCc1ccc(C(=O)Nc2ccc([C@@H]3N[C@H](CO)[C@@H](O)[C@H]3O)cc2)cc1)c1ccccc1 [Compound 25]           < 3.00
2  O=C(CCCC1CCN(C(=O)c2ccccc2)CC1)Nc1ccccc1 [Compound 35]           < 3.00

Case CC(C)(C)c1ccc(S(=O)(=O)N2CCC(CCCC(=O)Nc3ccc([C@@H]4N[C@H](CO)[C@@H](O)[C@H]4O)cc3)CC2)cc1 [Compound 21] , recombinant human NAMPT (Homo sapiens), pIC50 recorded as < 3.00

# COC[C@H]1N[C@@H](c2ccc(NC(=O)CCCC3CCN(C(=O)c4ccccc4)CC3)cc2)[C@H](OC)[C@@H]1OC [Compound 27] with recombinant human NAMPT (Homo sapiens): pIC50 is < 3.00

// compound COC[C@H]1N[C@@H](c2ccc(NC(=O)c3ccc(CNC(=O)c4ccccc4)cc3)cc2)[C@H](OC)[C@@H]1OC [Compound 30] , assay recombinant human NAMPT (Homo sapiens), pIC50 value: < 3.00
